Origin of measurements: patent US20180334496A1

# Target of assay: T1, recombinant cynomolgus CFD, His-tagged (cynomolgus)
# T1 construct: also called rcyCFD-His; recombinant Cyno-CFD
# Method notes: SPR MX96
Entries and their Kd values follow.

Binder | Kd (nM)
KCD132 (antibody, V domains shown) VH: QVQLQQSGPELVKPGASVKISCKASGYSFTDYYINWVKQRPGQGLEWIGWIFPGSGSTYYNEKFKGKATLTVDKSSSTAYMLLSSLTSEDSAVYFCARTGYYSNLYAVDYWGQGTSVTVSS VL: DIQMTQSPASLSVSVGETVTITCRASENIYSNLAWYQQKQGKSPQLLVYVATNLADGVPSRFSGSGSGTQYSLKINSLQSEDFGNYYCQHFWGTPYTFGGGTKLEMR | 8
KCD065 (antibody, V domains shown) VH: QVQLQQSGAELARPGASVKMSCKASGYTFTTYTIHWVKQRPGQGLEWIGYINPSSDFTNYNQNFADKATLTADRSSSTAYMQLSSLTSEESAVYYCAIRLGYDRQGWYFDVWGAGTTVTVSS VL: DIVMTQSHKFLSTSLGDRVSITCKASQDVGSAVAWYQQKPGQSPDLLIYWTFTRHTGVPDRFTGSRSGTDFTLTISNVQSGDLADYFCQQYSNYPLTFGGGTKLEIK | 25
KCD122 (antibody, V domains shown, chimeric) VH: EVQLQQSGPELVKPGASVKISCKASGYTFTDYYKNWMRQRHGESLEWIGDINPNNGDANYNQKFKGKATLTVDKSSSTAYMELRSLTSEDSAVYFCAREGPSFAYWGHGTLVTVSA VL: DVLMTQTPLSLPVSLGDQASISCRSSQTIVHSNGDTYLEWYLQKPGQSPNLLIYKVSNRFSGVPDRFSGSGSGTDFTLKISRVEAEDLGVYYCFQGSHVPPTFGGGTKLEIK | 1.9
